Entry source: PubChem BioAssay (NCATS)

test system: KB-3-1; assay: Cytotoxic Profiling of Annotated Libraries Using Quantitative High-Throughput Screening (AID 1296008); conditions: Five cell lines viability, CellTiter-Glo ATP luminescence, 48-72 h, active compounds read low; also: % is scaled to controls: 0 for no effect and ±100 for the full control effect; nearly all actives have a fitted effect of over 60% in size
Results filed as inconclusive are left out.
Please go through the items and note down their max response.
Report only the number, with the unit % understood.

*Q* GET /values?readout=max response&item= `CCOC(=O)[C@H](CCc1ccccc1)N[C@@H](C)C(=O)N1CCC[C@H]1C(=O)O`
*A* 7.19

*Q* Now this one: `CCOC(N)=O`
*A* -7.14

*Q* Now this one: `O=S1(=O)OC(c2ccc(O)cc2)(c2ccc(O)cc2)c2ccccc21`
*A* 15.7

*Q* Now this one: CC(=O)N(CC(O)CO)c1c(I)c(C(=O)NCC(O)CO)c(I)c(C(=O)NCC(O)CO)c1I (stereo not given)
*A* -10.7

*Q* Now this one: `C[N+](C)(C)CC[N+]1(C)Cc2c(Cl)c(Cl)c(Cl)c(Cl)c2C1`
*A* 9.08

*Q* Now this one: `CC(=O)SC[C@@H](Cc1ccccc1)C(=O)NCC(=O)OCc1ccccc1`
*A* 6.03

*Q* Now this one: `O=C(OOC(=O)c1ccccc1)c1ccccc1`
*A* -3.15

*Q* Now this one: CC1(c2ccccc2)OC(C(=O)O)=CC1=O (stereo not given)
*A* 17.3

*Q* Now this one: `COC(=O)c1ccc(O)cc1`
*A* 0.911

*Q* Now this one: `Cc1ccsc1/C=C/C1=NCCCN1C`
*A* -0.196

*Q* Now this one: `C[C@@H]1O[C@@H](OC[C@H]2O[C@@H](Oc3c(-c4ccc(O)c(O)c4)oc4cc(O)cc(O)c4c3=O)[C@H](O)[C@@H](O)[C@@H]2O)[C@H](O)[C@H](O)[C@H]1O`
*A* 16.6

*Q* Now this one: `CCN(CC)CCc1nc(-c2ccccc2)no1`
*A* 7.98

*Q* Now this one: `CC(=O)Oc1cccc(C)c1`
*A* -6.53

*Q* Now this one: `Cc1cc(C)nc(NS(=O)(=O)c2ccc(N)cc2)n1`
*A* -0.934

*Q* Now this one: `CCCCCCCCCCCCCCCCN`
*A* 5.46

*Q* Now this one: `Cc1c(I)c(=O)n(-c2ccccc2)n1C`
*A* 2.22

*Q* Now this one: `Nc1ncnc(Nc2ccccc2)n1`
*A* 3.24

*Q* Now this one: `O=C(O)c1cc(=O)c2ccccc2o1`
*A* -5.78

*Q* Now this one: `C[C@@H](N)C(=O)O`
*A* -23.1

*Q* Now this one: `CC(C)C[C@@H](N)C(=O)O`
*A* 12.7

*Q* Now this one: `CC[C@]12CCCN3CCc4c(n(c5ccccc45)[C@@](O)(C(=O)OC)C1)[C@@H]32`
*A* 3.99

*Q* Now this one: `O=C(/C=C/c1ccc(O)c(O)c1)O[C@@H]1C[C@@](OC(=O)/C=C/c2ccc(O)c(O)c2)(C(=O)O)C[C@@H](O)[C@@H]1O`
*A* -0.0821

*Q* Now this one: CCCCCCCCCCC(CO)CCCCCCCC (stereo not given)
*A* 12.2

*Q* Now this one: `N[C@@H](Cc1ccc(O)cc1)C(=O)O`
*A* -4.34

*Q* Now this one: CN1C(=O)CC(c2ccccc2)C1=O (stereo not given)
*A* 0.936
